Reference source for all entries: the PolyMetriX glass transition set

# note: exactly 200 °C is not below, so it is NO; use YES for glass transition temperature strictly under it

Example entries and their recorded answers appear below.
molecule | label class
*Cc1cc2cc(C(=O)Nc3ccc(C(c4ccc(NC(=O)c5cc6cc(*)c(OC(=O)COc7ccc8ccc(=O)oc8c7)cc6oc5=O)cc4)(C(F)(F)F)C(F)(F)F)cc3)c(=O)oc2cc1OC(=O)COc1ccc2ccc(=O)oc2c1 (repeat unit) | NO
*C(=O)Oc1ccc(OC(=O)c2ccc3c(c2)C(=O)N(c2ccc(Oc4ccc(N5C(=O)c6ccc(*)cc6C5=O)cc4)cc2)C3=O)cc1 (repeat unit) | NO
*CC(O*)c1ccco1 (repeat unit) | YES

Problem: For the molecule *Oc1ccc(C(c2ccc(Oc3ccc(C(=O)C(=O)c4ccc(*)cc4)cc3)cc2)(C(F)(F)F)C(F)(F)F)cc1 (repeat unit) , is glass transition temperature under 200 °C?
YES

Problem: For the molecule *CCCC(CCNC(=O)c1ccc(C(=O)N*)cc1)C(C)C (repeat unit) , is glass transition temperature under 200 °C?
YES

Problem: For the molecule *CC(*)c1ccc(CCCCCCCCCCCC)cc1 (repeat unit) , is glass transition temperature under 200 °C?
YES

Problem: For the molecule *c1ccc(-c2nnc(*)o2)c(OCC)c1 (repeat unit) , is glass transition temperature under 200 °C?
NO

Problem: For the molecule *CC(*)C(=O)OC(C(F)(F)F)C(F)(F)F (repeat unit) , is glass transition temperature under 200 °C?
YES

Problem: For the molecule *CCCCCCCCCCOC(=O)CC/C=C/CCC(=O)O* (repeat unit) , is glass transition temperature under 200 °C?
YES

Problem: For the molecule *Oc1cccc(C(*)=O)c1 (repeat unit) , is glass transition temperature under 200 °C?
YES

Problem: For the molecule *c1ccc(-c2sc(-c3ccc(-c4cc(CCCC)c(*)s4)cc3)cc2CCCC)cc1 (repeat unit) , is glass transition temperature under 200 °C?
YES

###

observation type: glass transition temperature (°C)
Hi! Could you send only the number? It should be in °C, unit omitted.

Examples with answers:
molecule | observed
*Nc1ccc(C(C)(C)c2ccc(NC(=O)c3cc(C(*)=O)cc(S(=O)(=O)c4ccccc4)c3)cc2)cc1 (repeat unit) | 287.00
*Nc1cccc(NC(=O)c2ccc(C(*)=O)cc2)c1 (repeat unit) | 238.00
*Oc1ccc(C2(c3ccc(OC(*)=O)cc3)CCCC2)cc1 (repeat unit) | 166.00
*C(=O)c1ccc2c(c1)C(=O)N(c1cc(-c3nc4ccccc4[nH]3)cc(N3C(=O)c4ccc(*)cc4C3=O)c1)C2=O (repeat unit) | 197.00
*c1cccc(C(c2cccc(N3C(=O)c4ccc(Oc5ccc6c(c5)C(=O)N(*)C6=O)cc4C3=O)c2)(C(F)(F)F)C(F)(F)F)c1 (repeat unit) | 224.50
*c1cc(N2C(=O)c3ccc(Oc4ccc5c(c4)C(=O)N(*)C5=O)cc3C2=O)c(O)cc1O (repeat unit) | 263.00

Could you now look at the following molecule, please?
Fill in glass transition temperature for record *C([2H])([2H])C(*)([2H])C([2H])=C([2H])[2H] (repeat unit)
1.00

###

Here, each record is paired with measured glass transition temperature data.
Hi! Could you send only the number? It should be in °C, unit omitted.

Examples with answers:
compound | observation type | observed
*CC(*)C(=O)OCC(C)O (repeat unit) | glass transition temperature | -7.00
*c1ccc(Cc2ccc(N3C(=O)c4ccc(Sc5ccc6c(c5)C(=O)N(*)C6=O)cc4C3=O)cc2)cc1 (repeat unit) | glass transition temperature | 265.00
*c1ccc2c(c1)C(=O)N(c1cccc(C(=O)Nc3ccc(C(c4ccc(NC(=O)c5cccc(N6C(=O)c7ccc(C(*)(C(F)(F)F)C(F)(F)F)cc7C6=O)c5)cc4)(C(F)(F)F)C(F)(F)F)cc3)c1)C2=O (repeat unit) | glass transition temperature | 273.50

Fill in glass transition temperature for record *CCCCOC(=O)C(Cc1ccccc1)NC(=O)/C=C/C(=O)NC(Cc1ccccc1)C(=O)O* (repeat unit)
103.00

###

# note: exactly 200 °C is not below, so it is 0 (no); use 1 (yes) for glass transition temperature strictly under it

Example entries and their recorded answers appear below.
compound | label class
*CC(*)OC(=O)c1cccc(Cl)c1 (repeat unit) | 1 (yes)
*c1ccc(Oc2cccc(Oc3ccc(N4C(=O)c5ccc(-c6cccc7c6C(=O)N(*)C7=O)cc5C4=O)cc3)c2)cc1 (repeat unit) | 0 (no)
*c1ccc(-c2nc3cc(Oc4ccc5nc(-c6ccccc6)c(*)nc5c4)ccc3nc2-c2ccccc2)cc1 (repeat unit) | 0 (no)
*CCCCCCOc1ccc(C(=O)N(C(=O)c2ccc(O*)cc2)c2cc(C)cc(C)c2)cc1 (repeat unit) | 1 (yes)
*OC(=O)/C=C/C(=O)OC1COC2C(*)COC12 (repeat unit) | 1 (yes)

Query compound follows.
Problem: For the compound *Nc1ccc(C2(c3ccc(NC(=O)c4cccc(C(*)=O)c4)cc3)c3ccccc3-c3ccccc32)cc1 (repeat unit) , is glass transition temperature under 200 °C?
0 (no)

###

observation type: glass transition temperature (°C)
Hi! Could you send only the number? It should be in °C, unit omitted.

Examples with answers:
compound | observed
*c1ccc2c(c1)C(=O)N(c1cc(C)c(N3C(=O)c4ccc(C(*)(C(F)(F)F)C(F)(F)F)cc4C3=O)cc1C)C2=O (repeat unit) | 367.00
*Oc1ccc(C(C)c2ccc(OC(*)=O)cc2)cc1 (repeat unit) | 130.00

Fill in glass transition temperature for record *CC1CC(*)C(OC(=O)CCCCCCCCCCOc2ccc(-c3ccc(C#N)cc3)cc2)C1OC(=O)CCCCCCCCCCOc1ccc(-c2ccc(C#N)cc2)cc1 (repeat unit)
14.50

Fill in glass transition temperature for record *Oc1ccc(C(c2ccc(OC(*)=O)cc2)C2C3CCC(C3)C2c2ccccc2)cc1 (repeat unit)
196.00

Fill in glass transition temperature for record *c1ccc2c(c1)C(=O)N(c1cccc(C(=O)Nc3ccc(Oc4ccc(NC(=O)c5cccc(N6C(=O)c7ccc(C(*)(C(F)(F)F)C(F)(F)F)cc7C6=O)c5)cc4)cc3)c1)C2=O (repeat unit)
298.00

###

Here, each record is paired with measured glass transition temperature data.
Answer by giving the amount and then stating its unit.

Fill in glass transition temperature for record *O[Si](C)(C)O[Si](C)(C)c1ccc([Si](*)(C)C)cc1 (repeat unit)
-62.50 °C

Fill in glass transition temperature for record *CCCC(*)C (repeat unit)
-52.60 °C

Fill in glass transition temperature for record *c1nc(-c2ccccc2)nc(N(C)CCCCCCN(*)C)n1 (repeat unit)
57.00 °C

Fill in glass transition temperature for record *CC(*)(C)C(=O)OCCCCCCCCCCn1c2ccccc2c2cc(/C=C(\C#N)C(=O)OC)ccc21 (repeat unit)
58.00 °C

Fill in glass transition temperature for record *Oc1ccc(/C(=C/c2cc(OC)c(/C=C(/c3ccc(*)cc3)c3ccc(F)cc3)cc2OC)c2ccc(F)cc2)cc1 (repeat unit)
187.00 °C

Fill in glass transition temperature for record *c1ccc2c(c1)C(=O)N(c1c(C(C)C)cc(C(c3ccccc3)(c3cc(C(C)C)c(N4C(=O)c5ccc(C(*)(C(F)(F)F)C(F)(F)F)cc5C4=O)c(C(C)C)c3)C(F)(F)F)cc1C(C)C)C2=O (repeat unit)
274.00 °C

Fill in glass transition temperature for record *C(=O)OCC(COc1ccc(/N=N/c2ccc(C#N)cc2)cc1)OC(=O)c1ccc(*)s1 (repeat unit)
119.00 °C

Fill in glass transition temperature for record *Oc1ccc(C(C)(C)c2ccc(OC(=O)c3cccc(C(*)=O)c3)c(C)c2)cc1C (repeat unit)
162.00 °C

Fill in glass transition temperature for record *CC(*)C(=O)OCC(F)(F)C(F)(F)OC(F)(F)F (repeat unit)
-55.00 °C

###

Here, each record is paired with measured glass transition temperature data.
Hi! Could you send only the number? It should be in °C, unit omitted.

Examples with answers:
compound | observation type | observed
*CCCCCOC(=O)Nc1ccc(Cc2ccc(NC(=O)O*)cc2)cc1 (repeat unit) | glass transition temperature | 95.00
*CC(OC)C1(C)C(=O)OC(=O)C1(*)C (repeat unit) | glass transition temperature | 260.00
*c1ccc(Oc2ccc(-c3ccc(Oc4ccc(N5C(=O)c6ccc(Oc7ccccc7Oc7ccc8c(c7)C(=O)N(*)C8=O)cc6C5=O)cc4)cc3)cc2)cc1 (repeat unit) | glass transition temperature | 204.00

Fill in glass transition temperature for record *c1ccc(-c2ccc(N3C(=O)c4ccc(Oc5ccc6c(c5)C(=O)N(*)C6=O)cc4C3=O)c(OCCCCCCOc3ccc(/C=C/c4ccc(F)cc4)cc3)c2)cc1OCCCCCCOc1ccc(/C=C/c2ccc(F)cc2)cc1 (repeat unit)
124.00

Fill in glass transition temperature for record *CC(*)(C)C(=O)Oc1ccc(C(C)(C)C)cc1 (repeat unit)
91.00

###

# note: exactly 100 °C is not below, so it is NOT MET; use MET for glass transition temperature strictly under it

Example entries and their recorded answers appear below.
compound | label class
*CCOC(=O)c1ccc(C(=O)O*)cc1 (repeat unit) [Poly(ethylene terephthalate)] | MET
*OC(=O)C(NC(=O)CCCCCCCCC(=O)NC(C(=O)OC1COC2C(*)COC12)C(C)CC)C(C)CC (repeat unit) | MET
*c1cccc(N2C(=O)c3ccc(Oc4ccc5c(c4)C(=O)N(*)C5=O)cc3C2=O)c1 (repeat unit) | NOT MET
*CCN(*)C(=O)CCC(=O)OC (repeat unit) | MET
*CCN(*)C(=O)CC (repeat unit) | MET
*CC(*)C(=O)OCC(C)CC (repeat unit) | MET
*c1c(C)cc(Cc2cc(C)c(N3C(=O)c4ccc(Oc5ccc6ccc(Oc7ccc8c(c7)C(=O)N(*)C8=O)cc6c5)cc4C3=O)c(C)c2)cc1C (repeat unit) | NOT MET
*CC(*)(C)C(=O)OCc1ccc2c(c1)c1ccccc1n2CCCCCCCCCC (repeat unit) | MET

Problem: For the compound *c1cccc(Oc2cccc(Oc3cccc(-n4c(=O)c5cc6c(=O)n(*)c(=O)c6cc5c4=O)c3)c2)c1 (repeat unit) , is glass transition temperature under 100 °C?
NOT MET

Problem: For the compound *c1ccc2c(c1)C(=O)N(c1ccc(C(=O)Nc3ccc(Oc4ccc(-c5ccc(Oc6ccc(NC(=O)c7ccc(N8C(=O)c9ccc(C(*)(C(F)(F)F)C(F)(F)F)cc9C8=O)cc7)cc6)cc5)cc4)cc3)cc1)C2=O (repeat unit) , is glass transition temperature under 100 °C?
NOT MET

Problem: For the compound *CC(CCCCCCOc1ccc(/N=N/c2ccc(Br)cc2)cc1)COC(=O)CCCCC(=O)O* (repeat unit) , is glass transition temperature under 100 °C?
MET

Problem: For the compound *=CNc1ccc(Cc2ccc(N=*)cc2)cc1 (repeat unit) , is glass transition temperature under 100 °C?
MET

Problem: For the compound *C(=O)Oc1ccc(-c2ccc(OC(=O)c3ccc4c(c3)C(=O)N(c3ccc(-c5ccc(N6C(=O)c7ccc(*)cc7C6=O)cc5C)c(C)c3)C4=O)cc2C)c(C)c1 (repeat unit) , is glass transition temperature under 100 °C?
NOT MET

Problem: For the compound *c1cccc(N2C(=O)c3cccc(Oc4c(C)cc(Cc5cc(C)c(Oc6cccc7c6C(=O)N(*)C7=O)c(C)c5)cc4C)c3C2=O)c1 (repeat unit) , is glass transition temperature under 100 °C?
NOT MET

Problem: For the compound */C=C(/*)C(C)(C)C (repeat unit) , is glass transition temperature under 100 °C?
NOT MET

Problem: For the compound */C=C/C(C)C* (repeat unit) , is glass transition temperature under 100 °C?
MET
